tested on: OVCAR-3 ovarian; assay: NCI tumour cell line growth inhibition, 48 h
MEASURED_QUANTITY: GI50

Completed entries (count: 2):
IN: Tell me reported GI50 for COc1ccc(C2=NC(c3ccc(Cl)cc3)C(c3ccc(Cl)cc3)N2C(=O)N2CCNC(=O)C2)c(OC(C)C)c1 (stereo not drawn) , tested with OVCAR-3 ovarian.
OUT: 1710 nM

IN: Now this one: COc1cccc2c1cc1c3c(cc4c(c32)OCO4)C(=O)N1
OUT: 2500 nM

Continue with the next compound.
IN: Tell me reported GI50 for NC(=O)c1ccc(N(C(N)=O)c2c(F)cccc2F)nc1-c1ccc(F)cc1F , tested with OVCAR-3 ovarian.
OUT: > 100000 nM
